Target: recombinant guanylate cyclase reporter cell line (Rattus norvegicus, UniProt P19686+P20595)
Construct: expressed in transfected cells
Sequence (P19686 whole entry): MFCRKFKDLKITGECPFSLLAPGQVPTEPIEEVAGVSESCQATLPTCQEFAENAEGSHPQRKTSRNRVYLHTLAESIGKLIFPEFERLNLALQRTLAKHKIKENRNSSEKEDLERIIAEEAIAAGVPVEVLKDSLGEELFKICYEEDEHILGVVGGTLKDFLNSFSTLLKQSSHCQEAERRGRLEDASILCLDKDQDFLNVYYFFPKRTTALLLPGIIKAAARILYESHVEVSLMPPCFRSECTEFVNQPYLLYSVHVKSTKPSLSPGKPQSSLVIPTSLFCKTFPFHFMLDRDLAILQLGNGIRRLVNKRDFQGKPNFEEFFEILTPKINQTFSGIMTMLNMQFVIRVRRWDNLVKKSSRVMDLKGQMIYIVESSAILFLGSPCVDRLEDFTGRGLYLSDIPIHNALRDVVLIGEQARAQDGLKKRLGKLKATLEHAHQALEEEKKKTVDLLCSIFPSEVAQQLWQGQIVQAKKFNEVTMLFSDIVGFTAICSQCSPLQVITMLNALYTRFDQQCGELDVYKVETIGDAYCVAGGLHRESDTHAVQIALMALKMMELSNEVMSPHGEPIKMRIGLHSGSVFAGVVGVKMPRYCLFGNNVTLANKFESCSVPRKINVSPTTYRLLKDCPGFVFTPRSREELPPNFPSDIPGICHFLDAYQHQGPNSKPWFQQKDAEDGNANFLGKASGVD
Sequence (P20595 whole entry): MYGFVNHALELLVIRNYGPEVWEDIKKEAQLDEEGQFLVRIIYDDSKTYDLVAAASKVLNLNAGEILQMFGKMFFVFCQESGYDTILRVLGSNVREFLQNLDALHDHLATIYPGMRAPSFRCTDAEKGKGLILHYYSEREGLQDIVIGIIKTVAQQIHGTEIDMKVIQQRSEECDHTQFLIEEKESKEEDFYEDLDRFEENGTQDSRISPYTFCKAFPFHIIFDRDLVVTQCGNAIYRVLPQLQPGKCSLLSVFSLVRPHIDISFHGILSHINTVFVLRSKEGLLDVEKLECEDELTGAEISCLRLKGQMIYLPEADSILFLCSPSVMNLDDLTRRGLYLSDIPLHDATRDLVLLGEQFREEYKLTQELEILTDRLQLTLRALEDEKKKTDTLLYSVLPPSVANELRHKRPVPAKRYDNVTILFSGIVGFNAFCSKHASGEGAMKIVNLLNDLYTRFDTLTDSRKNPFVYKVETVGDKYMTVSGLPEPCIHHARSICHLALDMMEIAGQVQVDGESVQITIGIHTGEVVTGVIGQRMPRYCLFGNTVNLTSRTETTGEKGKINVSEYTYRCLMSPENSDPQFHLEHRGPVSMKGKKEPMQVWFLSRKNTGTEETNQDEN
Test: Effect on a recombinant guanylate cyclase reporter cell line
Type: cell-based
Conditions: MEC = minimum effective concentration; in some cases mean values for individual determinations
Description: B-2. Effect on a Recombinant Guanylate Cyclase Reporter Cell Line The cellular action of the compounds of the invention is determined using a recombinant guanylate cyclase reporter cell line, as described in F. Wunder et al., Anal. Biochem. 339, 104-112 (2005). Representative MEC values (MEC=minimum effective concentration) for the compounds of the invention are shown in the table below (in some cases as mean values for individual determinations): […]
Where a name gives a salt, the structure may show the parent alone.
Each entry below carries its recorded MEC.
outcomeMeasure: MEC

compound	testValue
Cc1cn2c(C(=O)NCC3(O)CC3)c(C)nc2c(OCc2c(F)cccc2F)n1 [Example 32]	1 µM
Cc1cn2c(C(=O)NC(C)C#N)c(C)nc2c(OCc2c(F)cccc2F)n1 (racemic) [Example 14]	3 µM
CCC(CO)(CO)NC(=O)c1c(C)nc2c(OCc3c(F)cccc3F)nc(C)cn12 [Example 35]	3 µM
Cc1nc2c(OCC3CCC3)nccn2c1C(=O)NCc1ccc(F)c(F)c1 [Example 48]	3.0 µM
Cc1cn2c(C(=O)NCC(C)(N)C3CC3)c(C)nc2c(OCc2c(F)cccc2F)n1 (racemic) [Example 20]	3 µM
Cc1cn2c(C(=O)NCC3CCC(C#N)CC3)c(C)nc2c(OCc2c(F)cccc2F)n1 (mixture of isomers) [Example 50]	1.0 µM
Cc1cn2c(C(=O)NC(C)COCC(F)(F)F)c(C)nc2c(OCc2c(F)cccc2F)n1 (racemic) [Example 31]	3 µM
Cc1cn2c(C(=O)NNC3CCCC3O)c(C)nc2c(OCc2c(F)cccc2F)n1 (mixture of isomers) [Example 54]	1.0 µM
CCCC[C@H](CO)NC(=O)c1c(C)nc2c(OCc3c(F)cccc3F)nc(C)cn12 [Example 3]	3 µM
Cc1cn2c(C(=O)NCCCCCC#N)c(C)nc2c(OCc2c(F)cccc2F)n1 [Example 49]	1.0 µM
Cc1cn2c(C(=O)NCCN(C)C)c(C)nc2c(OCc2c(F)cccc2F)n1 [Example 19]	3 µM
Cc1cn2c(C(=O)NCc3ccc(Cl)nc3)c(C)nc2c(OCc2c(F)cccc2F)n1 [Example 28]	1 µM
Cc1cn2c(C(=O)NC[C@H]3CC[C@H](C(=O)O)CC3)c(C)nc2c(OCc2c(F)cccc2F)n1.Cl [Example 11]	3 µM
Cc1cn2c(C(=O)NCC(C)(N)CF)c(C)nc2c(OCc2c(F)cccc2F)n1 (single isomer, unassigned; enantiomer b) [Example 37]	0.3 µM
Cc1cn2c(C(=O)NCc3ccccc3-c3cccnc3)c(C)nc2c(OCc2c(F)cccc2F)n1 [Example 21]	3 µM
Cc1cn2c(C(=O)NC(C)c3nc(C(F)(F)F)no3)c(C)nc2c(OCc2c(F)cccc2F)n1 (racemic) [Example 26]	3 µM
Cc1cn2c(C(=O)NOCCO)c(C)nc2c(OCc2c(F)cccc2F)n1 [Example 44]	10 µM
Cc1cn2c(C(=O)Nc3c(C(F)(F)F)n[nH]c3C)c(C)nc2c(OCc2c(F)cccc2F)n1 [Example 27]	1 µM
Cc1cn2c(C(=O)Nc3cnn(CC(F)(F)F)c3)c(C)nc2c(OCc2c(F)cccc2F)n1 [Example 24]	3 µM
Cc1cn2c(C(=O)NC3CC3c3ccccc3)c(C)nc2c(OCc2c(F)cccc2F)n1 (racemic) [Example 17]	10 µM
CCCC[C@H](C)NC(=O)c1c(C)nc2c(OCc3c(F)cccc3F)nc(C)cn12 [Example 2]	1 µM
Cc1cn2c(C(=O)NC3CC(C)(C)NC(C)(C)C3)c(C)nc2c(OCc2c(F)cccc2F)n1 [Example 16]	3 µM
C=CCONC(=O)c1c(C)nc2c(OCc3c(F)cccc3F)nc(C)cn12 [Example 51, trifluoroacetate]	3.0 µM
Cc1cn2c(C(=O)NC3c4ccccc4CC3O)c(C)nc2c(OCc2c(F)cccc2F)n1 (stereo not shown) [Example 13]	3 µM
Cc1cn2c(C(=O)Nc3c(C)nn(CCO)c3C)c(C)nc2c(OCc2c(F)cccc2F)n1 [Example 18]	3 µM
Cc1cn2c(C(=O)NN3CCOCC3)c(C)nc2c(OCc2c(F)cccc2F)n1 [Example 45]	10 µM
COC(=O)[C@H]1CC[C@H](CNC(=O)c2c(C)nc3c(OCc4c(F)cccc4F)nc(C)cn23)CC1 [Example 8]	1 µM
Cc1cn2c(C(=O)NCC(C)(N)CC(C)C)c(C)nc2c(OCc2c(F)cccc2F)n1 (racemic) [Example 5]	1 µM
Cc1nc2c(OCC3CCCCC3)nccn2c1C(=O)NCc1ccc(F)c(F)c1 [Example 47]	1.0 µM
Cc1cn2c(C(=O)NCCN3CCOCC3)c(C)nc2c(OCc2c(F)cccc2F)n1 [Example 22]	3 µM
Cc1cn2c(C(=O)Nc3cnn4ccccc34)c(C)nc2c(OCc2c(F)cccc2F)n1 [Example 30]	3 µM

---

Quick reference for MEC among some compounds
biological target: recombinant guanylate cyclase reporter cell line (Rattus norvegicus, UniProt P19686+P20595); construct: expressed in transfected cells; experiment: Effect on a recombinant guanylate cyclase reporter cell line; format: cell-based; conditions: MEC = minimum effective concentration; in some cases mean values for individual determinations

compound	MEC [µM]
Cc1cn2c(C(=O)Nc3ccnc4ccc(F)cc34)c(C)nc2c(OCc2c(F)cccc2F)n1 [Example 10]	0.3
Cc1cn2c(C(=O)N[C@H]3CCNC3=O)c(C)nc2c(OCc2c(F)cccc2F)n1 [Example 9]	3
Cc1cn2c(C(=O)NNC(=O)CN(C)C)c(C)nc2c(OCc2c(F)cccc2F)n1 [Example 53]	3.0
